Target: UniProt:Q13547
Sequence (Q13547 whole entry): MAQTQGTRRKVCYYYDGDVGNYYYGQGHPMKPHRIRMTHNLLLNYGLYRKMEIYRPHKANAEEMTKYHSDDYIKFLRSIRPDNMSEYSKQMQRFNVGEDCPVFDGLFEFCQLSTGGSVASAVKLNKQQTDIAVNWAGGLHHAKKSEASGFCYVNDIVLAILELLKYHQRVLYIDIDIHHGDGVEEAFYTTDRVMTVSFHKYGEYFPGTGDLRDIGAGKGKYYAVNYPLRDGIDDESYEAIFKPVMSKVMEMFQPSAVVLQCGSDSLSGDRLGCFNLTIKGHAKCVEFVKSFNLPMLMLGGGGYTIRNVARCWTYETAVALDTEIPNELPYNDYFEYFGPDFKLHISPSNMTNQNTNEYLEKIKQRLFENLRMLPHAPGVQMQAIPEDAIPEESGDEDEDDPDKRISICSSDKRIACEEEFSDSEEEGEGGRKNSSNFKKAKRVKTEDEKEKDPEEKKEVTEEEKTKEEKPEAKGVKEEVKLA
Assay: HDAC1 inhibition, fluorogenic peptide substrate Ac-RHKK(Acetyl)-AMC
Format: biochemical
Details: test set; read-out: HDAC1 IC50
Assay Endpoint: IC50 (nM)

- Compound: "CC(=O)N1CCN(c2cnc(C(=O)Nc3ccccc3N)cn2)CC1 [30d]"
  Observed Value: 1900

1. CC(=O)N1CCN(c2cnc(C(=O)Nc3cc(-c4cccs4)ccc3N)cn2)CC1 [30c]
2. CN1CCN(c2cnc(C(=O)Nc3cc(-c4cccs4)ccc3N)cn2)CC1 [30b]
Lookup: Compare 1 and 2 and name the one whose reported IC50 is smaller. // caller expects the label of the chosen entry
Found: 1

###

pIC50: −log10 of the molar value.
Record type: pIC50 measurement. Applies to: UniProt Q92769
Sequence (Q92769 whole entry): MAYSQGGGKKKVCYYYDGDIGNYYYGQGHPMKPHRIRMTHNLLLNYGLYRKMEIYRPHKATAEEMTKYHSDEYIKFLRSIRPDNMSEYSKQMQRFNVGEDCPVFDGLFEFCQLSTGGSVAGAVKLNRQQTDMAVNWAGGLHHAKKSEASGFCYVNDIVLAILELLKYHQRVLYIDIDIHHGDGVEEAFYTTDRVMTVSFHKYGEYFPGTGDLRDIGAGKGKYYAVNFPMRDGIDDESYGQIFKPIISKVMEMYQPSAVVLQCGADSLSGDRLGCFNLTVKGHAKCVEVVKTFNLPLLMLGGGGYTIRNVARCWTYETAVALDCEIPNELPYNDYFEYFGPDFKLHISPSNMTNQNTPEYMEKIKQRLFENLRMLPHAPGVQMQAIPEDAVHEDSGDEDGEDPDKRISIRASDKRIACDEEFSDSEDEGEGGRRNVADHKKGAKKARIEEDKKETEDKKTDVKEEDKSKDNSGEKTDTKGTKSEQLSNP
Assay Endpoint: pIC50

The following compounds have reported results that may help.
- Compound: "CC(=O)N1CCN(c2cnc(C(=O)Nc3cc(-c4cccs4)ccc3N)cn2)CC1 [30c]"
  Target System: "UniProt Q92769"
  Assay Endpoint: "pIC50"
  Observed Value: 5.96
- Compound: "CN1CCN(c2ncc(C(=O)Nc3cc(-c4cccs4)ccc3N)cn2)CC1 [30a]"
  Target System: "UniProt Q92769"
  Assay Endpoint: "pIC50"
  Observed Value: 6.21

I. CN1CCN(c2cnc(C(=O)Nc3cc(-c4cccs4)ccc3N)cn2)CC1 [30b]
II. CC(=O)N1CCN(c2cnc(C(=O)Nc3ccccc3N)cn2)CC1 [30d]
Lookup: Lower value of pIC50 belongs to which: I or II ? When you have decided, please share the label of that item.
Found: II

###

Molecular target: human HDAC3 (Homo sapiens, UniProt O15379)
Sequence (O15379 whole entry): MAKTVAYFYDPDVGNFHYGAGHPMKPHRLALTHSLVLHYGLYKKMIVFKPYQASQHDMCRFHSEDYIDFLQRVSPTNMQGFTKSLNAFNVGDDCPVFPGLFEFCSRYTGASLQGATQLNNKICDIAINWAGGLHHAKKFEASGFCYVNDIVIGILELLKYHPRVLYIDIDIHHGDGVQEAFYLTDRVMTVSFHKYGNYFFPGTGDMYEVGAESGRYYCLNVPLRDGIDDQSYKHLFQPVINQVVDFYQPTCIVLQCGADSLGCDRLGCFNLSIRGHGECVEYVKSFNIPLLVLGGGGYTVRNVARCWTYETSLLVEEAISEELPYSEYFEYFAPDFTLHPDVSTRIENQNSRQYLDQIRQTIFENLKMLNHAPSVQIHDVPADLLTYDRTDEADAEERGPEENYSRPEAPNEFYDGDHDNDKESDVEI
Sequence (O75376 395-489 partner limits assumed): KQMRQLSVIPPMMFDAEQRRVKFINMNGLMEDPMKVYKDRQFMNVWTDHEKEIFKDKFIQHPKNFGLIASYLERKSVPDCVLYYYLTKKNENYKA
Assay: HDAC3 inhibition, fluorogenic peptide substrate Ac-RHKK(Acetyl)-AMC
Format: biochemical
Conditions: @10 µM; test set
Assay Endpoint: inhibition at 10 µM (%)

a. Nc1cc(F)ccc1NC(=O)c1ccc(C(=O)NCc2cccnc2)cc1 [31c]
b. CN1CCN(c2ncc(C(=O)Nc3cc(-c4cccs4)ccc3N)cn2)CC1 [30a]
Lookup: When a and b are compared, which has the higher number for inhibition at 10 µM? Output the label that corresponds to your choice.
Found: a

###

Target: human HDAC3 (Homo sapiens)
Assay: HDAC3 inhibition, fluorogenic peptide substrate Ac-RHKK(Acetyl)-AMC
Assay type: biochemical
Conditions: @1 µM; test set
Assay Endpoint: inhibition at 1 µM (%)

- Compound: "Nc1cc(F)ccc1NC(=O)c1ccc(C(=O)NCc2cccnc2)cc1 [31c]"
  Target System: "human HDAC3 (Homo sapiens)"
  Result Units: "%"
  inhibition at 1 µM: 25

P. Nc1cc(F)ccc1NC(=O)c1ccc(C(=O)NCc2ccccc2)cc1 [31a]
Q. CN1CCN(c2ncc(C(=O)Nc3cc(-c4cccs4)ccc3N)cn2)CC1 [30a]
Lookup: Smaller inhibition at 1 µM value? Options are P and Q Answer by stating the label of the chosen item.
Found: Q
(Q: 8%, P: 21%)
